Value source: the supplement of paper PMC11061612

Listed here are compounds together with their documented Bliss excess.
# System: CAL-85-1 (Breast Carcinoma)
# method_notes: Bliss excess, mean over the matrix (fraction); higher = more synergy
Hey, just send me the number, nothing else.

Here's what some known entries look like.
compound | Bliss excess
Cc1c2c(nn1C)CSCc1cc(n(C)n1)CSc1cc(c3ccccc3c1)OCCCc1c(C(=O)O)n(C)c3c-2c(Cl)ccc13 [AZD5991] + CS(=O)(=O)CCNCc1ccc(-c2ccc3ncnc(Nc4ccc(OCc5cccc(F)c5)c(Cl)c4)c3c2)o1 [Lapatinib] (first compound max 1 µM, 7x7, partner max 10 µM) | -0.0213
C=CCn1c(=O)c2cnc(Nc3ccc(N4CCN(C)CC4)cc3)nc2n1-c1cccc(C(C)(C)O)n1 [AZD1775] + C1CN(CCC1(C(=O)N[C@@H](CCO)C2=CC=C(C=C2)Cl)N)C3=NC=NC4=C3C=CN4 [Capivasertib] (first compound max 3 µM, partner max 3 µM) | -0.0528
CC(=O)c1c(C)c2cnc(Nc3ccc(N4CCNCC4)cn3)nc2n(C2CCCC2)c1=O [Palbociclib] + Cc1c2c(nn1C)CSCc1cc(n(C)n1)CSc1cc(c3ccccc3c1)OCCCc1c(C(=O)O)n(C)c3c-2c(Cl)ccc13 [AZD5991] (first compound max 10 µM, 7x7, partner max 1 µM) | -0.0101

The record that follows has no Bliss excess shown yet.
Record CN(CCO)CC[C@H](CSc1ccccc1)Nc1ccc(S(=O)(=O)NC(=O)c2ccc(N3CCC([C@@H](O)c4ccccc4-c4ccc(Cl)cc4)CC3)cc2)cc1S(=O)(=O)C(F)(F)F [AZD4320] + Cc1cc2ncnn2cc1Nc1ncc2c(n1)n(C1CCOCC1)c(=O)n2C [AZD7648] (first compound max 1 µM, 7x7, partner max 10 µM) . Reported Bliss excess: -0.0118

====

# Test system: NTERA-2-cl-D1 (Other Solid Carcinomas)
# method_notes: Bliss excess, mean over the matrix (fraction); higher = more synergy
Listed here are compounds together with their documented Bliss excess.

Here's what some known entries look like.
compound | Bliss excess
Cc1c2c(nn1C)CSCc1cc(n(C)n1)CSc1cc(c3ccccc3c1)OCCCc1c(C(=O)O)n(C)c3c-2c(Cl)ccc13 [AZD5991] + Nc1ccn([C@@H]2O[C@H](CO)[C@@H](O)C2(F)F)c(=O)n1 [Gemcitabine] (first compound max 1 µM, 7x7, partner max 0.3 µM) | -0.0695
N#Cc1cnc(Nc2cc(NC[C@H]3CNCCO3)c(C(F)(F)F)cn2)cn1 [SRA737] + Nc1ccn([C@@H]2O[C@H](CO)[C@@H](O)C2(F)F)c(=O)n1 [Gemcitabine] (first compound max 10 µM, 7x7, partner max 0.3 µM) | 0.0301
C=CCn1c(=O)c2cnc(Nc3ccc(N4CCN(C)CC4)cc3)nc2n1-c1cccc(C(C)(C)O)n1 [AZD1775] + CCc1c2c(nc3ccc(O)cc13)-c1cc3c(c(=O)n1C2)COC(=O)[C@]3(O)CC [SN-38] (first compound max 1 µM, partner max 0.3 µM) | 0.0011
CN(C)CCCOc1ccc(-c2ccc3ncc4c(c3c2)n(C2CCOCC2)c(=O)n4C)cn1 [AZD0156] + O=C(c1cc(Cc2n[nH]c(=O)c3ccccc23)ccc1F)N1CCN(C(=O)C2CC2)CC1 [Olaparib] (first compound max 3 µM, partner max 3 µM) | 0.0068
Cc1c2c(nn1C)CSCc1cc(n(C)n1)CSc1cc(c3ccccc3c1)OCCCc1c(C(=O)O)n(C)c3c-2c(Cl)ccc13 [AZD5991] + Cn1cnc2c(F)c(Nc3ccc(Br)cc3Cl)c(C(=O)NOCCO)cc21 [Selumetinib] (first compound max 1 µM, 7x7, partner max 3 µM) | 0.0115
CC1(C)CCC(CN2CCN(c3ccc(C(=O)NS(=O)(=O)c4ccc(NCC5CCOCC5)c([N+](=O)[O-])c4)c(Oc4cnc5[nH]ccc5c4)c3)CC2)=C(c2ccc(Cl)cc2)C1 [Venetoclax] + Cn1cnc2c(F)c(Nc3ccc(Br)cc3Cl)c(C(=O)NOCCO)cc21 [Selumetinib] (first compound max 1 µM, 7x7, partner max 3 µM) | -0.0415

The record that follows has no Bliss excess shown yet.
Record CN(CCO)CC[C@H](CSc1ccccc1)Nc1ccc(S(=O)(=O)NC(=O)c2ccc(N3CCC([C@@H](O)c4ccccc4-c4ccc(Cl)cc4)CC3)cc2)cc1S(=O)(=O)C(F)(F)F [AZD4320] + Cc1cc2ncnn2cc1Nc1ncc2c(n1)n(C1CCOCC1)c(=O)n2C [AZD7648] (first compound max 1 µM, 7x7, partner max 10 µM) . Reported Bliss excess: 0.0408

====

# Test system: C2BBe1 (Colorectal Carcinoma)
# method_notes: combination Emax (second highest fraction inhibited in the dose matrix, 72 h); higher = more inhibition; extreme values may be limits of the assay
experimental_endpoint: combination Emax
Hey, just send me the number, nothing else.

Here's what some known entries look like.
compound | number
Cc1cc2ncnn2cc1Nc1ncc2c(n1)n(C1CCOCC1)c(=O)n2C [AZD7648] + C=CCn1c(=O)c2cnc(Nc3ccc(N4CCN(C)CC4)cc3)nc2n1-c1cccc(C(C)(C)O)n1 [AZD1775] (first compound max 10 µM, partner max 1 µM) | 0.345
CCN(CCO)CCCOc1ccc2c(Nc3cc(CC(=O)Nc4cccc(F)c4)[nH]n3)ncnc2c1 [AZD2811] + O=C(c1cc(Cc2n[nH]c(=O)c3ccccc23)ccc1F)N1CCN(C(=O)C2CC2)CC1 [Olaparib] (first compound max 1 µM, 7x7, partner max 10 µM) | 0.131
Cc1c2c(nn1C)CSCc1cc(n(C)n1)CSc1cc(c3ccccc3c1)OCCCc1c(C(=O)O)n(C)c3c-2c(Cl)ccc13 [AZD5991] + Cn1cnc2c(F)c(Nc3ccc(Br)cc3Cl)c(C(=O)NOCCO)cc21 [Selumetinib] (first compound max 1 µM, 7x7, partner max 3 µM) | 0.425

The record that follows has no combination Emax shown yet.
Record CN(C)CCCOc1ccc(-c2ccc3ncc4c(c3c2)n(C2CCOCC2)c(=O)n4C)cn1 [AZD0156] + C[C@@H]1COCCN1C2=NC(=NC(=C2)C3(CC3)[S@](=N)(=O)C)C4=C5C=CNC5=NC=C4 [AZD6738] (first compound max 1 µM, 7x7, partner max 10 µM) . Reported combination Emax: 0.434

====

Listed here are compounds together with their documented combination Emax.
# System: GCIY (Gastric Carcinoma)
# method_notes: combination Emax (second highest fraction inhibited in the dose matrix, 72 h); higher = more inhibition; extreme values may be limits of the assay
Hey, just send me the number, nothing else.

compound | combination Emax
Cc1c2c(nn1C)CSCc1cc(n(C)n1)CSc1cc(c3ccccc3c1)OCCCc1c(C(=O)O)n(C)c3c-2c(Cl)ccc13 [AZD5991] + Nc1ccn([C@@H]2O[C@H](CO)[C@@H](O)C2(F)F)c(=O)n1 [Gemcitabine] (first compound max 1 µM, 7x7, partner max 0.3 µM) | 0.649
CN(CCO)CC[C@H](CSc1ccccc1)Nc1ccc(S(=O)(=O)NC(=O)c2ccc(N3CCC([C@@H](O)c4ccccc4-c4ccc(Cl)cc4)CC3)cc2)cc1S(=O)(=O)C(F)(F)F [AZD4320] + CCN(CCO)CCCOc1ccc2c(Nc3cc(CC(=O)Nc4cccc(F)c4)[nH]n3)ncnc2c1 [AZD2811] (first compound max 1 µM, 7x7, partner max 1 µM) | 0.554

The record that follows has no combination Emax shown yet.
Record CN(CCO)CC[C@H](CSc1ccccc1)Nc1ccc(S(=O)(=O)NC(=O)c2ccc(N3CCC([C@@H](O)c4ccccc4-c4ccc(Cl)cc4)CC3)cc2)cc1S(=O)(=O)C(F)(F)F [AZD4320] + C=CCn1c(=O)c2cnc(Nc3ccc(N4CCN(C)CC4)cc3)nc2n1-c1cccc(C(C)(C)O)n1 [AZD1775] (first compound max 1 µM, partner max 1 µM) . Reported combination Emax: 0.708

====

# System: NCI-H2170 (Squamous Cell Lung Carcinoma)
# method_notes: Bliss excess, mean over the matrix (fraction); higher = more synergy
Listed here are molecules together with their documented Bliss excess.
Hey, just send me the number, nothing else.

molecule | Bliss excess
COc1nnc2ccc(N3CCC(c4ccc(OCCN5CCN(C)C(=O)[C@H]5C)cc4)CC3)nn12 [AZD5153] + CN(CC[C@H](CSC1=CC=CC=C1)NC2=C(C=C(C=C2)S(=O)(=O)NC(=O)C3=CC=C(C=C3)N4CCC(CC4)[C@H](C5=CC=CC=C5C6=CC=C(C=C6)Cl)O)S(=O)(=O)C(F)(F)F)CCO [AZD4320] (first compound max 1 µM, 7x7, partner max 1 µM) | 0.0175

The record that follows has no Bliss excess shown yet.
Record CC1(C)CCC(CN2CCN(c3ccc(C(=O)NS(=O)(=O)c4ccc(NCC5CCOCC5)c([N+](=O)[O-])c4)c(Oc4cnc5[nH]ccc5c4)c3)CC2)=C(c2ccc(Cl)cc2)C1 [Venetoclax] + Cc1cc2ncnn2cc1Nc1ncc2c(n1)n(C1CCOCC1)c(=O)n2C [AZD7648] (first compound max 1 µM, 7x7, partner max 10 µM) . Reported Bliss excess: -0.0109
